test system: Plasmodium falciparum; assay: Confirmatory screen in NF54 nanoGlo assay, in single point, at 2uM, 72h; format: functional, Erythrocyte; details: timepoint 72 hour
Among all 4,800 compounds or so, about 420 (8.8%) showed an effect of 50% or more. The full list was thinned out, with strong results kept by preference.
Quantity: % Inhibition (%)
Respond numerically; units are % and should not be typed.

Query: Give the reported % Inhibition for this compound. CC(=O)N(Cc1ccccc1OCc1c(Cl)cccc1Cl)c1ccc2oc(-c3ccccc3)nc2c1
Result: -13

Query: Give the reported % Inhibition for this compound. COC(=O)c1ncn(CNC2(c3ccc(Cl)cc3)CCCC2)n1
Result: 6

Query: Give the reported % Inhibition for this compound. CC(C)c1cnc(NCCCC[C@H]2CCCO2)nc1
Result: -2

Query: Give the reported % Inhibition for this compound. COC1CCCC1NC(=O)Nc1ncc(Br)cc1C (stereo unspecified)
Result: 74

Query: Give the reported % Inhibition for this compound. CCN1CCN(c2nc(O)c3c(n2)NC(=O)C[C@H]3c2cccc(F)c2)CC1
Result: -11

Continuing:
Query: Give the reported % Inhibition for this compound. COc1ccc(Cl)cc1S(=O)(=O)c1cnc(N2CCOCC2)nc1N
Result: -2

Query: Give the reported % Inhibition for this compound. COc1cc(NC(=O)CN2C(=O)N[C@](C)(c3ccc4c(c3)OCCO4)C2=O)c(OC)cc1Cl
Result: 2

====

system: Plasmodium falciparum; assay: Confirmatory screen in NF54 nanoGlo assay, in single point, at 2uM, 72h; type: functional, Erythrocyte; settings: timepoint 72 hour
About 420 (8.8%) of roughly 4,800 compounds showed an effect of 50% or more. The sample as a whole holds a higher share of strong results than the screen did.
The following compounds are shown together with reported % Inhibition values.
Respond numerically; units are % and should not be typed.

The cases that follow already have their % Inhibition on record.
Query: Give the reported % Inhibition for this compound. O=S(=O)(c1ccc(F)cc1)n1ccc(-c2cccc(OCc3ccc(Cl)cc3Cl)c2)n1
Result: -4

Query: Give the reported % Inhibition for this compound. CC[n+]1c(C)sc2cc(-c3ccccc3)sc21
Result: -15

Query: Give the reported % Inhibition for this compound. CCN1c2cc(C(=O)NCc3ccncc3)ccc2C(=O)N2CCCC[C@H]21
Result: -2

Query: Give the reported % Inhibition for this compound. C[C@@H](CNc1nc(-c2ccccc2)nc2nc(-c3ccc(Cl)cc3)oc12)N1CCCCC1
Result: 60

Query: Give the reported % Inhibition for this compound. O=C(Nc1nncs1)c1cccc(C(=O)Nc2nncs2)n1
Result: 68

Continuing:
Query: Give the reported % Inhibition for this compound. Cc1ccc(S(=O)(=O)c2ccc3c(c2)Oc2ccccc2N3)cc1
Result: -10

Query: Give the reported % Inhibition for this compound. COc1ccc(-c2c(-c3cccc(OC)c3)[nH]c3c2c(=O)[nH]c(=O)n3C)cc1
Result: 74

Query: Give the reported % Inhibition for this compound. Cc1cccc(NC(=O)C(=O)N(C)[C@H]2CCCc3c2cnn3C)c1F
Result: -17

Query: Give the reported % Inhibition for this compound. CC(=O)c1cccc(NC(=O)Cc2c(C)nc3nc(C4CCCCC4)nn3c2C)c1
Result: 5

Query: Give the reported % Inhibition for this compound. CC(C)(C)c1ccc(C(=O)N[C@H]2C[C@@H]3CC[C@H]2C3)cc1
Result: 8

Query: Give the reported % Inhibition for this compound. O=C(CC(O)c1cccc(F)c1)NCCC1CCCCO1 (centres undefined)
Result: -1

Query: Give the reported % Inhibition for this compound. Cc1cccc(C(=O)Nc2ccc(N3CCCCCC3)cc2C(=O)O)c1
Result: -10

Query: Give the reported % Inhibition for this compound. Cc1cn([C@H]2C[C@@H](OC(=O)c3ccccc3)[C@@H](CO)O2)c(=O)[nH]c1=O
Result: -6

Query: Give the reported % Inhibition for this compound. O=C(Cc1ncc(C(F)(F)F)cc1Cl)c1ccc(Cl)cc1Cl
Result: -6

Query: Give the reported % Inhibition for this compound. CCc1cc(C(=O)N[C@@H](C)c2ccccc2)c2c(C3CC3)nn(Cc3ccccc3)c2n1
Result: -6

Query: Give the reported % Inhibition for this compound. C[C@H](O)CNCc1ccc(Cl)cc1Cl
Result: -8

====

tested on: Plasmodium falciparum; test: Confirmatory screen in NF54 nanoGlo assay, in single point, at 2uM, 72h; format: functional, Erythrocyte; conditions: timepoint 72 hour
Screen size: about 4,800 compounds; about 420 (8.8%) showed an effect of 50% or more. The list comes from a sample in which strong results are over-represented; it also holds close analogues and randomly drawn compounds.
Quantity: % Inhibition (%)
Respond numerically; units are % and should not be typed.

The cases that follow already have their % Inhibition on record.
Query: Give the reported % Inhibition for this molecule. COc1ccc(-c2cc3n(n2)C[C@@](C)(C(=O)NCc2ccccc2OC)N(c2cccc(OC)c2)C3=O)cc1
Result: 49

Query: Give the reported % Inhibition for this molecule. CCc1ccc(CN2C(=O)c3c(C(=O)OC)ncn3C[C@@]2(C)C(=O)NC2CCCC2)cc1
Result: -6

Query: Give the reported % Inhibition for this molecule. COc1ccc2cccc(NC(=O)c3cc(-c4cc(OC)c(OC)c(OC)c4)n[nH]3)c2n1
Result: 64

Query: Give the reported % Inhibition for this molecule. COc1cccc(S(=O)(=O)N2CCCN(Cc3ccncc3)[C@H](c3ccccc3)CC(=O)NCC2)c1
Result: 92

Query: Give the reported % Inhibition for this molecule. COc1cccc(S(=O)(=O)N2CCC(OCCOc3ccccc3)CC2)c1
Result: 0

Query: Give the reported % Inhibition for this molecule. COc1cccc(S(=O)(=O)N2CCC(OCCOCc3ccccc3)CC2)c1
Result: -3

Continuing:
Query: Give the reported % Inhibition for this molecule. O=C(CCn1nc(-c2ccc(Br)cc2)ccc1=O)NCc1ccc2c(c1)OCO2
Result: -4

Query: Give the reported % Inhibition for this molecule. CCc1ccc(CN2C(=O)c3c(C(=O)OC)ncn3C[C@@]2(C)C(=O)NC2CCCCCC2)cc1
Result: 1

Query: Give the reported % Inhibition for this molecule. COc1ccc(-c2cc(C(=O)Nc3ncc[nH]3)n[nH]2)cc1OC
Result: 29

====

The following molecules are shown together with reported % Inhibition values.
system: Plasmodium falciparum; experiment: Confirmatory screen in NF54 nanoGlo assay, in single point, at 2uM, 72h; format: functional, Erythrocyte; settings: timepoint 72 hour
Screen size: about 4,800 compounds; about 420 (8.8%) showed an effect of 50% or more. Shown is part of a subset that was picked to be rich in strong results.
Respond numerically; units are % and should not be typed.

The cases that follow already have their % Inhibition on record.
Query: Give the reported % Inhibition for this molecule. CC(C)(C)OC(=O)NS(=O)(=O)Nc1nccs1
Result: -13

Query: Give the reported % Inhibition for this molecule. FC(F)Oc1cccc(-c2cc(C(F)(F)F)c3c(-c4ccc5c(c4)OCO5)noc3n2)c1
Result: 8

Query: Give the reported % Inhibition for this molecule. Cn1nc(-c2nc(-c3ccc(F)cc3)no2)c2c1CCN(C(=O)c1cccc(Cl)c1)C2
Result: -5

Query: Give the reported % Inhibition for this molecule. CC(C)c1ccc(-c2nc(CN3CCCCC3)cc(CN3CCCCC3)c2O)cc1
Result: 96

Query: Give the reported % Inhibition for this molecule. Cn1cc(CN2CCC(C(=O)NCCCN3CCCCC3)CC2)c2cc(Cl)ccc21
Result: -7

Query: Give the reported % Inhibition for this molecule. Cc1cc(C)c2ccc3ccccc3c2n1
Result: -4

Query: Give the reported % Inhibition for this molecule. O=C(Cn1cnc2cc3c(cc21)OCCCO3)N1CCc2ccccc21
Result: 0

Query: Give the reported % Inhibition for this molecule. CC(C)c1cc(=O)n(Cc2ccccc2Cn2cnc(C(C)C)cc2=O)cn1
Result: -3

Query: Give the reported % Inhibition for this molecule. N#Cc1cccc(-c2n[nH]c3c2CN(c2ccc(-c4ccccc4)nn2)CC3)c1
Result: 85

Query: Give the reported % Inhibition for this molecule. CC[N+](C)(CC)CCOc1cc(C)c2ccccc2n1
Result: 53

Continuing:
Query: Give the reported % Inhibition for this molecule. Cn1cc(-c2nn(S(=O)(=O)c3ccccc3)c(-c3cnn(C)c3)c2Cl)cn1
Result: 2

Query: Give the reported % Inhibition for this molecule. O=C(NCc1cccnc1)c1cnn2c3c(cnc12)CCCC3
Result: -4

Query: Give the reported % Inhibition for this molecule. Cc1cc(C)c(NC(=O)OCc2cccc3cccnc23)c(C)c1
Result: 83

Query: Give the reported % Inhibition for this molecule. O=C1CCc2[nH]c(=O)n(C3CCCCC3)c(=O)c21
Result: 4

Query: Give the reported % Inhibition for this molecule. CCc1ccc(C2=Nc3cccnc3N(CC(=O)Nc3c(C)cc(C)cc3C)C(=O)C2)cc1
Result: -4

Query: Give the reported % Inhibition for this molecule. CCOC(=O)N(c1ccccc1)[C@H]1CC(=O)N(c2ccccc2)C1=O
Result: 1

Query: Give the reported % Inhibition for this molecule. O=C(CCc1ccc(Cl)c(C(F)(F)F)c1)N1CC[C@H](N2CCc3ccccc3C2)C1
Result: 52
